Target: T1, Human OSCAR-ECD (recombinant extracellular domain of human OSCAR) (human, UniProt Q8IYS5 19-218)
T1 construct: also called OSACAR-ECD
T1 chain: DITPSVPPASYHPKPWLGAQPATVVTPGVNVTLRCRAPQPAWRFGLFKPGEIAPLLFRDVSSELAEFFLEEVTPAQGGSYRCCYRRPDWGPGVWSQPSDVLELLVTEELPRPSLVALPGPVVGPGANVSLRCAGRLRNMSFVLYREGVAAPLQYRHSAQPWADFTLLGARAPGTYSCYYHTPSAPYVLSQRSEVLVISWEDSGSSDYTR
Experiment: SPR (Biacore T100), mAb coupled or captured on chip, OSCAR-ECD injected, 1:1 fit
Reported pKd values follow for various binders
Note on pKd: it is the negative log10 of concentration, concentration in mol/L.

Look over these answered cases.
Binder	pKd
3F7A9 (antibody, V domains shown, Mouse anti-human OSCAR mAb (its isotype control is mIgG1); The heavy chain entry covers only VH-CH1 and the start of the hinge; also called 3F7A9-1) VH: EIQLQQSGPELVKPGASVKVSCKASGYVFTSYNMYWVKQSHGKSLEWIGYIDPYNGGTRYNQKFKGKATLTVDKSSSTAYMHLNSLTSEDSAVYYCARLDYYGNFYWGQGTTLTVSS VL: DIKMTQSPSSMYASLGERVTITCKASQDINSFLSWLQQKPGKSPKTLIYRANRLVDGVPSRFSGSGSGQDYSLTISSLEYEDMGIYYCLQYDDFPYTFGGGTKLEIKR	8.04
4F3B (antibody, V domains shown, Mouse anti-human OSCAR mAb (its isotype control is mIgG1); The heavy chain entry covers only VH-CH1 and the start of the hinge; It was fluorescein-labelled in the peptide array and Alexa Fluor 647-labelled in the flow binning; also called mAb 4F3B) VH: QVQLQQSGAELAKPGASVKMSCKASGFTFTSYWMHWVKQRPGQGLEWIGYINPSTDYTEYNQKFKDKATLTADKSSSTAYMQLSSLTSEDSAVYYCARRSPFAMDYWGQGTSVTVSS VL: DIVMTQSPSSLTVTAGEKVTMSCKSSQSLLNSGNQKNYLTWYQQKPGQPPKVLIYWASTRESGVPDRFTGSGSGTDFTLTISSVQAEDLAVYYCQNDYSYPLTFGTGTKLELKR	8.77
7F14A1 (antibody, V domains shown, Mouse anti-human OSCAR mAb; also called 7F14A4) VH: QVQLKESGPGLVAPSQSLSITCSVSGFSLTSYGVHWVRQPPGKGLEWLGVMWAGGSTNYNSALMSRLSISKDNSKSQVFLKMNSLQTDDSAMYYCALQKGYGNYFDYWGQGTTLTVSS VL: QIVLTQSPAIMSASPGEKVTMTCSASSSVNYMHWYQQKSGTSPKRWIYDTSNLASGVPTRFSGSGSGTSYSLTISSMEAEDAATYYCQQWSSDPLTFGAGTKLELKR	8.35

May I ask what pKd has been recorded for 7F1A1 (antibody, V domains shown, Mouse anti-human OSCAR mAb; The heavy chain entry covers only VH-CH1 and the start of the hinge) VH: QVQLQQSGAELVRPGTSVKVSCKASGYAFTNYMIEWVKKRPGQGLEWIGVINPGSGGTNYNEKFENKATLTADKSSSTAYMQLSSLTSDDSAVYFCARSLDFDGAWFAYWGQGTLVTVSA VL: DIQMTQSPASLSVSVGETVTITCRASEKIYSNLAWYQQKQGKSPQLLVYAATNLADGVPSRFSGSGSGTQFSLKINSLQPEDFGSYYCQHFWGIPWTFGGGTKLEIKR ?
8.57
